# credit: patent US20240002497A1

- ASSAYED_SYSTEM: T1, huNav157chim14 (human)
- T1 construct: HEK Flp-In cells; also called huNav157 chimera 14
- PROCEDURE_TEXT: binding FACS, HEK Flp-In
PROPERTY_NAME: MFI (MFI)

# BINDER, QUANTITATIVE_RESULT
data = [
    ("F0103PMP495F09 (bispecific antibody, crude periplasmic extract; also called F103275B05(N93R)-50GS-F0103495F09 bivalent ISVD) EVQLVESGGGLVQPGGSLRLSCAASGSIFNINSMAWYRRAPGKQRELVASSTNGGSTNYADSVKGRFTISRDNAKRVYLQMNSLTPEDTAVYYCRALLQPSIYDISRTYWGQGTLVTVSSGGGGSGGGGSGGGGSGGGGSGGGGSGGGGSGGGGSGGGGSGGGGSGGGGSEVQLVESGGGLVQAGSSLSLSCAASGRALSTYAMGWFRQAPGKEREFVARISRSGITTYYTDSVKGRFTISRDRAKDTVYLQMNSLKPEDTAIYLCAADASTNPAGYYLRNRYDYWGQGTLVTVSSAAADYKDHDGDYKDHDIDYKDDDDKGAAHHHHHHKAAGGGGG", 45100),
    ("F0103PMP500E03 (bispecific antibody, crude periplasmic extract; also called F103275B05(N93R)-50GS-F0103500E03 bivalent ISVD) EVQLVESGGGLVQPGGSLRLSCAASGSIFNINSMAWYRRAPGKQRELVASSTNGGSTNYADSVKGRFTISRDNAKRVYLQMNSLTPEDTAVYYCRALLQPSIYDISRTYWGQGTLVTVSSGGGGSGGGGSGGGGSGGGGSGGGGSGGGGSGGGGSGGGGSGGGGSGGGGSEVQLVESGGGLVQAGGSLRLSCAASGRTFSRYQMGWFRQAPGKEREFVAYISWSGSTRYVDSVKGRFTISRDNAKNTVYLQMNSLKPEDTAVYHCAAGTAGIISSRPETYDSWGQGTQVTVSSAAADYKDHDGDYKDHDIDYKDDDDKGAAHHHHHHKAA", 47300),
]
